Please provide measured Average (% positive control) for the entries that follow.
Tested on: BMDCs
Method summary: LDH release (lytic cell death, pyroptosis) from LPS-primed BMDCs
Assay type: cell-based, mouse
Measurement parameters: LDH release; 40 μM; positive control EN22 20 μM
One number for each entry, in % positive control.

// known answers, use as guide
COc1ccc(NC(=O)Nc2ccc3ncccc3c2)cc1    62.649
O=C(Nc1ccccc1)Nc1ccc2ncccc2n1    17.760

Dear colleague, could you send me Average (% positive control) for each of the items below? Thanks.
1. O=C(Nc1ccccc1)Nc1ccc2ncc(Br)cc2c1
2. N#Cc1ccc(NC(=O)Nc2ccc3ncccc3c2)cc1

# output
[51.749, 24.799]

// provenance: patent US20240277658A1
